Just for reference, ChEMBL document CHEMBL1201862 is where these values come from.

System: SK-MEL-2
assayName: NCI tumour cell line growth inhibition, 48 h
Active and inactive are the calls of the source. Rule as the data show it: active = GI50 up to about 1.1 µM and inactive = higher. Where a SMILES comes first, the peptide text is derived from it. The star is where a group is joined. Boc = CC(C)(C)OC(=O)*; nBu = CCCC*
Each item that follows carries a reported GI50.

Solved cases below.
1. CN(C)CCNC(=O)c1cccc2c1nc(-c1ccncc1)c1ccccc12: 6.12 µM (inactive)
2. CC(=O)OCCOCCN1CCN(C2=C(Cl)C(=O)c3c(O)ccc(O)c3C2=O)CC1: 1.63 µM (inactive)
3. COc1ccc2[nH]cc(/C=C(/C)c3ccncc3)c2c1: 5.38 µM (inactive)
4. Cc1cc(=O)n2nc(CN3CCCCC3)sc2n1: > 100 µM (inactive)
5. CN(NC(=O)c1ccco1)C1=NCCN1: > 100 µM (inactive)

Value of measured GI50 for the entry CCCCC#CS(=O)(=O)C(F)(F)F : > 36.8 µM (inactive)

Value of measured GI50 for the entry Cc1ccc(O)c(C2=NNC(c3cccc(Cl)c3)C2)c1 (stereo not given) : 30 µM (inactive)

Value of measured GI50 for the entry C[C@]12CC(c3ccccc3O1)C(C(N)=O)C(=O)N2 (stereo not given in full) : > 100 µM (inactive)

Value of measured GI50 for the entry C[C@H](CCC(=O)O)[C@H]1CC[C@H]2[C@@H]3[C@H](O)C[C@@H]4C[C@H](O)CC[C@]4(C)[C@H]3C[C@H](O)[C@]12C : > 100 µM (inactive)

Value of measured GI50 for the entry CCCCOc1ccc(CC(NC(=O)OC(C)(C)C)C(=O)NC(C)C(=O)NC(Cc2ccccc2)C(=O)NCC(N)=O)cc1 (stereo not given) (Boc-Y(nBu)AFG-NH2; configuration not given here) : 18.7 µM (inactive)

* * *

Tested on: SK-OV-3
assayName: NCI tumour cell line growth inhibition, 48 h
Activity calls are given as the source filed them. Cut-off read from the data, not from the text of the source: active = GI50 up to about 1.1 µM and inactive = higher.
parameterMeasured: GI50

1) Cc1ccc(Oc2ccc(C)cc2N)cc1: > 100 µM (inactive)

Value of measured GI50 for the entry Oc1cc(-c2ccccn2)nc2cccc(F)c12 : > 100 µM (inactive)

Value of measured GI50 for the entry CC(=O)/C(=N\N=C(N)N)c1ccccc1 : > 100 µM (inactive)

Value of measured GI50 for the entry CCCCCCCC(=O)OC[C@@H](C[As](=O)(O)O)OC(=O)CCCCCCC : 14.6 µM (inactive)

Value of measured GI50 for the entry COC(=O)CCc1ccc2c(c1)[C@H](C(=O)OC)[C@@H](c1ccc(O)cc1)O2 : > 100 µM (inactive)

Value of measured GI50 for the entry CSc1nc(N)c(NC2OC(CO)C(O)C2O)c(=O)[nH]1 (stereo unspecified) : > 100 µM (inactive)

Value of measured GI50 for the entry O=[N+]([O-])c1ccccc1S(=O)(=O)c1ccccc1[N+](=O)[O-] : > 90.8 µM (inactive)

Value of measured GI50 for the entry COC(=O)/C=C/c1cnc2c(c1)oc(=O)n2CCc1ccccn1 : > 100 µM (inactive)

Value of measured GI50 for the entry Nc1ccc(-c2nc3ccccc3s2)cc1C(F)(F)F : 16.6 µM (inactive)

Value of measured GI50 for the entry COc1ccccc1/N=N/c1c(-c2ccccc2)nn(C(=O)CC(=O)Nc2ccccc2Cl)c1-c1ccccc1 : > 100 µM (inactive)

Value of measured GI50 for the entry CC1=CC(=O)c2ccccc2C1=O : 13 µM (inactive)
